# system.name: T1, human BCMA on NCI-H929, OPM2 and Raji cells (human, UniProt Q02223 1-184)
# T1 chain: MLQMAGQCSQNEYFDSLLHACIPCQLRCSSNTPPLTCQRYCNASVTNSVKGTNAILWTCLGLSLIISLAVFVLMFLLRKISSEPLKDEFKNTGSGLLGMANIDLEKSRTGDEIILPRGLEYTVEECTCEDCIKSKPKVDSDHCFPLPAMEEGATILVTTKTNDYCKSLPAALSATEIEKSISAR
# test: cell-based or functional assay
parameter: GI50 (nM) OPM2.1, cell viability
Numeric answer only, unit nM assumed.

Input line: I have this binder here, AB217-ADL1-D2-02 (antibody, human IgG1, kappa, V domains shown, ADL1-D2 linker-payload on cysteine residues of the antibody, DAR 3.7) VH: QVQLVQSGAEVKKPGSSVKVSCKASGGTFTNYWIHWVRQAPGQGLEWMGATYRSHSDTYYAQKYKSRVTITADKSTSTAYMELSSLRSEDTAVYYCARGAVYHGYDVIDNWGQGTLVTVSS VL: DIQMTQSPSSLSASVGDRVTITCRASQSISSYINWYQQKPGKAPKLLIYATSNLQSGVPSRFSGSGSGTDFTLTISSLQPEDFATYYCQQYRRIPWTFGQGTKLEIKR , and I need its recorded GI50 (nM) OPM2.1, cell viability.
Output line: 2.17

These entries and their values trace back to patent US20240327535A1.
